Attribution: patent US10774051B2

# SYSTEM_UNDER_TEST: human P2X7 receptor (Homo sapiens, UniProt Q99572, R270H/Y155H)
# TEST_DESCRIPTION: Evaluation of human P2X7 receptor inhibitory activity (Yo-Pro uptake, BzATP stimulation, FLIPR TETRA)
# Assay type: cell-based
# CONDITION_LABEL: 1321N1 cells stably expressing human P2X7 receptor; BzATP stimulation, Yo-Pro uptake; read-out: IC50 (antagonistic activity for the human P2X7 receptor), class symbol

QUERY_SMILES | SYSTEM_UNDER_TEST | IC50
COc1ccc(C)c(Nc2nc(=O)c(OC)cn2Cc2cc(F)cc(F)c2)c1 | human P2X7 receptor (Homo sapiens, UniProt Q99572, R270H/Y155H) | 10 to 100 nM
CCc1ccccc1Nc1nc(=O)c(OC)cn1Cc1cccc(Cl)c1 | human P2X7 receptor (Homo sapiens, UniProt Q99572, R270H/Y155H) | 10 to 100 nM
CCc1cc2c(cc1Nc1nc(=O)c(OC)cn1Cc1cccc(F)c1)CCC2 | human P2X7 receptor (Homo sapiens, UniProt Q99572, R270H/Y155H) | < 10 nM
COc1ccccc1Cn1cc(OC)c(=O)nc1Nc1cccc(Cl)c1C | human P2X7 receptor (Homo sapiens, UniProt Q99572, R270H/Y155H) | 100 to 500 nM
COc1cn(Cc2ccc(F)cc2)c(Nc2cc(C)c(F)cc2C)nc1=O | human P2X7 receptor (Homo sapiens, UniProt Q99572, R270H/Y155H) | < 10 nM
COc1cc(C)c(Nc2nc(=O)c(F)cn2Cc2ccccc2)cc1C | human P2X7 receptor (Homo sapiens, UniProt Q99572, R270H/Y155H) | < 10 nM
COc1cn(Cc2ccccc2F)c(Nc2cc(C)c(Cl)cc2C)nc1=O | human P2X7 receptor (Homo sapiens, UniProt Q99572, R270H/Y155H) | 10 to 100 nM
CCc1c(Nc2nc(=O)c(OC)cn2Cc2cccc(Cl)c2)cccc1OC | human P2X7 receptor (Homo sapiens, UniProt Q99572, R270H/Y155H) | < 10 nM
COc1cn(Cc2cccc(F)c2)c(Nc2cc(C)c(F)cc2C)nc1=O | human P2X7 receptor (Homo sapiens, UniProt Q99572, R270H/Y155H) | < 10 nM
COc1cc(C)cc(Nc2nc(=O)c(OC)cn2Cc2ccccc2)c1C | human P2X7 receptor (Homo sapiens, UniProt Q99572, R270H/Y155H) | < 10 nM
COc1c(C)ccc(Nc2nc(=O)c(OC)cn2Cc2ccc(F)c(Cl)c2)c1C | human P2X7 receptor (Homo sapiens, UniProt Q99572, R270H/Y155H) | < 10 nM
COc1cn(Cc2cccc(Cl)c2)c(Nc2cc3[nH]ncc3cc2C)nc1=O | human P2X7 receptor (Homo sapiens, UniProt Q99572, R270H/Y155H) | < 10 nM
CCOc1cn(Cc2ccccc2)c(Nc2cccc(Cl)c2C)nc1=O | human P2X7 receptor (Homo sapiens, UniProt Q99572, R270H/Y155H) | 10 to 100 nM
COc1ccc(Nc2nc(=O)c(OC)cn2Cc2cccc(Cl)c2)c(C)c1 | human P2X7 receptor (Homo sapiens, UniProt Q99572, R270H/Y155H) | 10 to 100 nM
COc1cn(Cc2cc(F)cc(Cl)c2)c(Nc2cccc(OC(F)F)c2C)nc1=O | human P2X7 receptor (Homo sapiens, UniProt Q99572, R270H/Y155H) | 10 to 100 nM
COc1cccc(Nc2nc(=O)c(OC)cn2Cc2ccccc2)c1Cl | human P2X7 receptor (Homo sapiens, UniProt Q99572, R270H/Y155H) | 10 to 100 nM
COc1cn(Cc2ccc(F)cc2)c(Nc2cccc(C(F)(F)F)c2Cl)nc1=O | human P2X7 receptor (Homo sapiens, UniProt Q99572, R270H/Y155H) | 10 to 100 nM
Cc1c(Cl)cccc1Nc1nc(=O)c(F)cn1Cc1ccccc1 | human P2X7 receptor (Homo sapiens, UniProt Q99572, R270H/Y155H) | < 10 nM
